PROTOCOL TEXT: Thermogravimetry analysis (TGA)
Assay type: physicochemical
CONDITIONS: heating from about 25° C. to about 100° C.
PROPERTY LABEL: TGA mass loss
Please don't drop the unit; write it after the number.

COMPOUND	READING
CCC(=O)CC1c2c(ccc(OC)c2OC)C=C2c3cc4c(cc3CCN21)OCO4 (centres unmarked) [berberine methyl ethyl ketone adduct]	0.4%
COc1ccc2c(c1OC)C(CC(=O)C(C)C)N1CCc3cc4c(cc3C1=C2)OCO4 (centres unmarked) [berberine methyl isopropyl ketone adduct]	0.1%
COc1ccc2c(c1OC)C(CC(=O)c1ccccc1)N1CCc3cc4c(cc3C1=C2)OCO4 (centres unmarked) [berberine methyl phenyl ketone adduct]	0.3%

Inquiry: Provide TGA mass loss value for the following compound: COc1ccc2cc3[n+](cc2c1OC)CCc1cc2c(cc1-3)OCO2 [crystalline berberine ascorbate Form A, berberine ascorbate]
Reply text: 0.4%

Inquiry: Provide TGA mass loss value for the following compound: COc1ccc2c(c1OC)C(CC(=O)CC(C)C)N1CCc3cc4c(cc3C1=C2)OCO4 (centres unmarked) [berberine methyl isobutyl ketone adduct]
Reply text: 0.3%

Inquiry: Provide TGA mass loss value for the following compound: COc1ccc2c(c1OC)C(C1CCCCC1=O)N1CCc3cc4c(cc3C1=C2)OCO4 (centres unmarked) [berberine cyclohexanone adduct]
Reply text: 0.3%

Inquiry: Provide TGA mass loss value for the following compound: COc1ccc2c(c1OC)C(CC(C)=O)N1CCc3cc4c(cc3C1=C2)OCO4 (centres unmarked) [crystalline berberine acetone adduct, berberine acetone adduct]
Reply text: 0.3%

Inquiry: Provide TGA mass loss value for the following compound: COc1ccc2cc3[n+](cc2c1OC)CCc1cc2c(cc1-3)OCO2 [crystalline berberine ascorbate Form B, berberine ascorbate]
Reply text: 2.5%
